test system: HCT-116 colon; assay: NCI tumour cell line growth inhibition, 48 h
Listing of recorded TGI by entry.
recorded_metric: TGI

>>> test_value("Cc1ccsc1/C=N/Nc1cnccn1")
"> 100 µM"
>>> test_value("N#Cc1sc2c(c1OC(=O)c1ccc(C(F)(F)F)cc1)c(=O)n(-c1ccccc1)c(=S)n2-c1ccccc1")
"74.6 µM"
>>> test_value("Cc1cc(C)nc(NS(=O)(=O)c2ccc(Nc3c4ccccc4nc4c(C(=O)N5CCN(CCO)CC5)cccc34)cc2)n1")
"> 100 µM"

====

system: EKVX NSCLC; assay: NCI tumour cell line growth inhibition, 48 h
recorded_metric: TGI

>>> test_value("FC(F)(F)c1ccc2nc(NCc3ccccc3)c(-c3ccccc3)nc2c1")
"> 100 µM"
>>> test_value("NC(N)=Nc1nc2ccccc2o1")
"> 100 µM"
>>> test_value("COc1cc(O)c2c(=O)c(OC)c(-c3ccc(OC)c(O)c3)oc2c1")
"> 100 µM"
>>> test_value("COc1ccc(N2C(=O)C3c4[nH]c5cc(C)ccc5c4C4CCC(C(C)(C)C)CC4C3C2=O)cc1 (stereo not given)")
"> 10 µM"
>>> test_value("Cc1cc(C[C@H]2O[C@@H]3OC(C)(C)O[C@@H]3[C@H]3OC(C)(C)O[C@H]32)c2ccccc2n1")
"> 100 µM"
>>> test_value("CC(C)=CCC1=C(O)c2ccccc2C(=O)C1=O")
"> 100 µM"
>>> test_value("COc1cc2c(cc1OCCCN1C(=O)c3cccc4cccc(c34)C1=O)N=C[C@@H]1CCCN1C2=O")
"> 100 µM"
>>> test_value("CNc1cc2oc(=O)cc(C)c2cc1C")
"> 100 µM"
>>> test_value("NNc1ncnc2nc[nH]c12")
"> 100 µM"
>>> test_value("Nc1c(S(=O)(=O)c2ccc(Cl)cc2)c2nc3ccccc3nc2n2ccnc12")
"> 100 µM"
>>> test_value("CC[C@]1(O)C[C@H]2CN(CCc3c([nH]c4ccccc34)C(C(=O)OC)(c3cc4c(cc3OC)N(C)[C@H]3[C@@](O)(C(=O)OC)[C@H](OC(C)=O)[C@]5(CC)[C@@H]6C[C@@H]6CN6CC[C@]43[C@@H]65)C2)C1 (stereo not given in full)")
"> 14.3 µM"
>>> test_value("O=C1/C(=C/c2ccc(Cl)cc2)CCCc2ccccc21")
"35.3 µM"
>>> test_value("C/C(=N\\NC(N)=O)c1sc(-c2nc(C)c(/C(C)=N/NC(N)=O)s2)nc1C")
"> 100 µM"
>>> test_value("[N-]=[N+]=CC(=O)OC(CCl)CCl")
"> 100 µM"
>>> test_value("O=Cc1cc2c(cc1-c1cc3c(cc1C=O)OCO3)OCO2")
"> 100 µM"
>>> test_value("O=[N+]([O-])c1cc2oc(CSc3ccccc3)nc2cc1Cl")
"> 100 µM"
>>> test_value("CCOC(=O)/C=C1/C(CCCOCc2ccccc2)C2CCCC23CC2(CCN13)OCCO2 (stereo not given)")
"> 100 µM"
>>> test_value("CN1Cc2c(nc(-c3ccccc3)c[n+]2[O-])N(C)C1")
"> 100 µM"
>>> test_value("C=C(C)[C@H]1C2=CC(C(=O)OC)=C(C[C@H](C(=C)C)[C@@H](O)[C@@H](O)C3=C[C@H]1OC3=O)O2")
"> 100 µM"
>>> test_value("O=C1c2cccc3cccc(c23)C(=O)N1CCCNCCCCNCCCNCCCN1C(=O)c2cccc3cccc(c23)C1=O")
"5.67 µM"
